# Test system: OVCAR-8 ovarian
# Protocol Description: NCI-60 one-dose screen, 48 h (100 = growth as untreated, 0 = no growth, -100 = all killed)
# Measurement Conditions: 10 µM unless noted
About 83,000 compounds went through this panel and 20% of them were active in at least one assay; those are over-represented in the sample as a whole.
The entries below come with measured growth values attached.
Measured Parameter: growth (%)

Compound	Measured Parameter	Result Number
COc1cc2c(cc1OCCCn1c(-c3ccccn3)nc3ccccc31)N=C[C@@H]1CCCN1C2=O	growth	25.5
COc1ccc(C2=CC(c3ccc(OC)c(OC)c3)c3c(c4ccccc4oc3=O)O2)cc1OC (centres undefined)	growth	36.2
CC12CCC=CC1CCC1C2CCC2(C)C(c3ccc(=O)oc3)CCC12O (centres undefined)	growth	-51.4
O=[N+]([O-])CC(c1ccccc1Cl)c1c(-c2ccccc2)[nH]c2ccccc12 (centres undefined)	growth	40.4
CCCCCCCC(=O)OCC(=O)[C@]1(O)Cc2c(O)c3c(c(O)c2[C@@H](OC2CC(N)C(O)C(C)O2)C1)C(=O)c1c(OC)cccc1C3=O (some centres undefined)	growth	-95
COC(=O)[C@H](Cc1ccccc1)NC(=O)c1csc([C@@H](C[C@H](C(C)C)N(C)C(=O)[C@@H](NC(=O)[C@H]2CCCN2C)C2CC2)OC(C)=O)n1	growth	27.3
CCN(CCO)C(Cc1ccccc1)c1ccccc1 (centres undefined)	growth	109
C=CC[PH+](c1ccccc1)c1ccccc1.C=CC[PH+](c1ccccc1)c1ccccc1.[Cl][Pt][Cl]	growth	20
CCOc1ccccc1C(=O)OCC(Cl)(Cl)Cl	growth	102

====

# System: MCF7 breast
# Protocol Description: NCI-60 one-dose screen, 48 h
# Measurement Conditions: 10 µM unless noted
Compounds without any hit were thinned out: in the full panel of roughly 83,000, 20% have a hit. The source made the active and inactive calls. Rule for the calls: active = growth percent below 10; inactive = the rest.
Classes used: active, inactive

Molecule	Answer Label
[Cl][Hg][c]1cc[c]([Hg][Cl])o1	active
COc1ccc2c(c1)c(-c1nc(-c3cn(C)c4ncccc34)cs1)cn2CCCCN1CCCCC1	active
C[S+]1C=Cc2ccccc2C1c1ccc(Cl)cc1 (centres undefined)	inactive
COC1OC(CO)C(O)C(O)[CH]1[Hg][O]C(C)=O (centres undefined)	inactive
NC(=S)c1cn(C2OC(CO)C(O)C2O)c2ncnc(N)c12 (centres undefined)	active
CC12CCC3C(CCC4=CC(=O)CCC43CF)C1CCC2=O (centres undefined)	inactive
CC(=O)O[C@H]1C(=O)[C@@]2(C)[C@H]([C@H](OC(=O)c3ccccc3)[C@]3(O)C[C@H](OC(=O)[C@H](OC(=O)OC[C@@H]4COC(C)(C)O4)[C@@H](NC(=O)c4ccccc4)c4ccccc4)C(C)=C1C3(C)C)[C@]1(OC(C)=O)CO[C@@H]1C[C@@H]2O	inactive
C[n+]1c(/C=C/c2ccc(N(CCCl)CCCl)cc2)sc2ccccc21	inactive
COC1CC2c3ccccc3C1C(C)=[N+]2C (centres undefined)	inactive

====

The entries below come with measured growth values attached.
# Tested on: SF-539 CNS
# Protocol Description: NCI-60 one-dose screen, 48 h (100 = growth as untreated, 0 = no growth, -100 = all killed)
# Measurement Conditions: 10 µM unless noted
This is part of a sample that, as a whole, favours compounds with a hit. Of some 83,000 tested, about 20% had one in any assay.

Compound	growth, %
CC(C)(C)N1CC1C#N (stereo not drawn)	103
COC(=O)[C@H](Cc1ccccc1)NC(=O)c1csc([C@@H](C[C@H](C(C)C)N(C)C(=O)[C@@H](NC(=O)[C@H]2CCCCN2C)C2CC2)OC(C)=O)n1	-14.4
Nc1ccc2c(c1)oc1ccccc12	104
Cc1c2cc(Cl)c3ccccc3c2c[n+]2ccccc12	26.3
Cc1cnc(/C=C/C(=O)O)cc1-c1cc2c(cc1C)C(C)(C)CCC2(C)C	84.3
CC(=O)[O][Hg][O]C(C)=O	108
CC(=O)OCc1cc[c]([Hg][Cl])o1	44.2
CC1=C(CCCOC(=O)CN)C2=C(C)C3(CC3)[C@@](C)(O)C(=O)C2=C1	94
O=C(O)C1C(C(=O)O)C2(Cl)C(Cl)=C(Cl)C1(Cl)C2(Cl)Cl.[Hg] (stereo not drawn)	102
COc1ccc(/C=C\c2cc(OC)c(OC)c(OC)c2)c(NS(=O)(=O)c2ccc(C)cc2)c1O	1.5
CCCCN1CCCC[C@@H]1C(=O)N[C@H](C(=O)N(C)[C@H](C[C@@H](OC(C)=O)c1nc(C(=O)NC2CCC(C(=O)OC)CC2)cs1)C(C)C)C(C)C (stereo partly drawn)	-5.06
C[C@]12CCc3sc(NCCc4ccccc4)nc3C1=CC[C@@H]1[C@@H]2CC[C@]2(C)C(=O)CC[C@@H]12	64.8
O=C(CC1(O)C(=O)Nc2ccccc21)c1ccc(C(=O)NCC2CCC3(CC2)OOC2(CCCCC2)OO3)cc1 (stereo not drawn)	81
CC[C@H](C)[C@H](NC(=O)C12C3C4C1C1C2C3C41NC(C)=O)C(=O)N(C)[C@H](C[C@@H](OC(C)=O)c1nc(C(=O)N[C@@H](Cc2ccccc2)C[C@H](C)C(=O)OC)cs1)C(C)C (stereo partly drawn)	5.34
COc1cc(/C=C/[N+](=O)[O-])cc(OC)c1	-72.2
CNC(=O)Oc1ccc2c(c1)OCO2	102
CCOC(=O)[C@@H](C)C[C@H](Cc1ccccc1)NC(=O)c1csc([C@@H](C[C@H](C(C)C)N(C)C(=O)[C@H](CCC(C)C)NC(=O)[C@H]2CCCCN2C)OC(C)=O)n1	-10.2
CC(C)CCC(=O)O[C@H]1CC[C@H]2[C@@H]3CCC4=CC(=O)CC[C@]4(C)[C@H]3CC[C@]12C	96
